System: spring barley (HORVS)
PROCEDURE SUMMARY: Postemergence greenhouse trial, % visual injury on spring barley
Type: in vivo, Hordeum vulgare
MEASUREMENT CONDITIONS: HORVS; compound 17.5 g/ha, CQC-m 0
Reported % visual injury, Ob values for the following molecules.
MEASURED PROPERTY: % visual injury, Ob (%)

• CCCCOC(=O)c1nc(-c2ccc3cc[nH]c3c2F)c(F)c(N)c1Cl [compound 9] = 30
• COC(=O)c1nc(-c2ccc3cc[nH]c3c2F)c(F)c(N)c1OC [compound 12] = 37
• COC(=O)c1nc(-c2ccc3cc[nH]c3c2F)c(F)c(/N=C/N(C)C)c1Cl [compound 11] = 10
• CO/C=N/c1c(F)c(-c2ccc3cc[nH]c3c2F)nc(C(=O)OC)c1Cl [compound 10] = 20

----------
System: spring barley (HORVS)
PROCEDURE SUMMARY: Postemergence greenhouse trial, % visual injury on spring barley
Assay type: in vivo, Hordeum vulgare
MEASUREMENT CONDITIONS: HORVS; 4.375 g/ha, applied alone
Reported % visual injury, Ob values for the following molecules.
MEASURED PROPERTY: % visual injury, Ob (%)

• CCCCCC(C)OC(=O)COc1ccc(Cl)c2cccnc12 (centres unmarked) [CQC-m, cloquintocet-mexyl, reference compound] = 0
• Nc1c(F)c(-c2ccc3scnc3c2)nc(C(=O)O)c1Cl = 0
• COc1c(N)nc(-c2ccc3sccc3c2)nc1C(=O)O = 0
• COC(=O)c1nc(-c2ccc3sccc3c2)c(F)c(N)c1Cl = 15
• Nc1c(F)c(-c2ccc3ccoc3c2)nc(C(=O)O)c1Cl = 0

----------
Reported % visual injury, Ob values for the following molecules.
Test system: spring wheat (TRZAS)
PROCEDURE SUMMARY: Postemergence greenhouse trial, % visual injury on spring wheat
Assay type: in vivo, Triticum aestivum
MEASUREMENT CONDITIONS: TRZAS; 8.75 g/ha, applied alone
MEASURED PROPERTY: % visual injury, Ob (%)

- Nc1c(F)c(-c2ccc3scnc3c2)nc(C(=O)O)c1Cl [compound 17]: 15
- Nc1c(F)c(-c2ccc3ccoc3c2)nc(C(=O)O)c1Cl [compound 20]: 0
- COc1c(N)nc(-c2ccc3sccc3c2)nc1C(=O)O [compound 19]: 10
- CCCCCC(C)OC(=O)COc1ccc(Cl)c2cccnc12 (centres unmarked) [CQC-m, cloquintocet-mexyl, reference compound]: 0
- COC(=O)c1nc(-c2ccc3sccc3c2)c(F)c(N)c1Cl [compound 18]: 25

----------
System: spring wheat (TRZAS)
PROCEDURE SUMMARY: Postemergence greenhouse trial, % visual injury on spring wheat
Assay type: in vivo, Triticum aestivum
MEASUREMENT CONDITIONS: TRZAS; 17.5 g/ha, applied alone
MEASURED PROPERTY: % visual injury, Ob (%)

* COc1c(N)nc(-c2ccc3sccc3c2)nc1C(=O)O | 30
* Nc1c(F)c(-c2ccc3scnc3c2)nc(C(=O)O)c1Cl | 30
* Nc1c(F)c(-c2ccc3ccoc3c2)nc(C(=O)O)c1Cl | 0
* CCCCCC(C)OC(=O)COc1ccc(Cl)c2cccnc12 (centres unmarked) [CQC-m, cloquintocet-mexyl, reference compound] | 0
* COC(=O)c1nc(-c2ccc3sccc3c2)c(F)c(N)c1Cl | 40

----------
System: spring barley (HORVS)
PROCEDURE SUMMARY: Postemergence greenhouse trial, % visual injury on spring barley
Type: in vivo, Hordeum vulgare
MEASUREMENT CONDITIONS: HORVS; 8.75 g/ha, applied alone
Reported % visual injury, Ob values for the following molecules.
MEASURED PROPERTY: % visual injury, Ob (%)

* COC(=O)c1nc(-c2ccc3sccc3c2)c(F)c(N)c1Cl | 25
* Nc1c(F)c(-c2ccc3ccoc3c2)nc(C(=O)O)c1Cl | 10
* Nc1c(F)c(-c2ccc3scnc3c2)nc(C(=O)O)c1Cl | 15
* COc1c(N)nc(-c2ccc3sccc3c2)nc1C(=O)O | 10
* CCCCCC(C)OC(=O)COc1ccc(Cl)c2cccnc12 (centres unmarked) [CQC-m, cloquintocet-mexyl, reference compound] | 0

----------
System: kochia (KCHSC)
PROCEDURE SUMMARY: Postemergence greenhouse trial, % visual injury on kochia
Type: in vivo, Kochia scoparia
MEASUREMENT CONDITIONS: Bassia scoparia, post-emergence; KCHSC; 17.5 g/ha, applied alone; read-out: % visual injury, Ob
Reported pest or weed control at 17.5 g/ha values for the following molecules.
MEASURED PROPERTY: pest or weed control at 17.5 g/ha (%)

- Nc1c(F)c(-c2ccc3scnc3c2)nc(C(=O)O)c1Cl [compound 17]: 95
- Nc1c(F)c(-c2ccc3ccoc3c2)nc(C(=O)O)c1Cl [compound 20]: 85
- COc1c(N)nc(-c2ccc3sccc3c2)nc1C(=O)O [compound 19]: 0
- Nc1c(F)c(-c2ccc3cc[nH]c3c2)nc(C(=O)O)c1Cl [compound 16]: 85
- COC(=O)c1nc(-c2ccc3sccc3c2)c(F)c(N)c1Cl [compound 18]: 75

----------
Reported pest or weed control at 17.5 g/ha values for the following compounds.
Test system: common poppy (PAPRH)
PROCEDURE SUMMARY: Postemergence greenhouse trial, % visual injury on common poppy
Type: in vivo, Papaver rhoeas
MEASUREMENT CONDITIONS: Papaver rhoeas, post-emergence; PAPRH; 17.5 g/ha, applied alone; read-out: % visual injury, Ob
MEASURED PROPERTY: pest or weed control at 17.5 g/ha

* Nc1c(F)c(-c2ccc3ccoc3c2)nc(C(=O)O)c1Cl [compound 20] | 95%
* COC(=O)c1nc(-c2ccc3sccc3c2)c(F)c(N)c1Cl [compound 18] | 93%
* Nc1c(F)c(-c2ccc3scnc3c2)nc(C(=O)O)c1Cl [compound 17] | 85%
* Nc1c(F)c(-c2ccc3cc[nH]c3c2)nc(C(=O)O)c1Cl [compound 16] | 100%
* COc1c(N)nc(-c2ccc3sccc3c2)nc1C(=O)O [compound 19] | 85%

----------
System: spring barley (HORVS)
PROCEDURE SUMMARY: Postemergence greenhouse trial, % visual injury on spring barley
Assay type: in vivo, Hordeum vulgare
MEASUREMENT CONDITIONS: HORVS; compound 35 g/ha, CQC-m 0
Reported % visual injury, Ob values for the following compounds.
MEASURED PROPERTY: % visual injury, Ob

• COC(=O)c1nc(-c2ccc3cc[nH]c3c2F)c(F)c(/N=C/N(C)C)c1Cl = 20%
• CCCCOC(=O)c1nc(-c2ccc3cc[nH]c3c2F)c(F)c(N)c1Cl = 40%
• COC(=O)c1nc(-c2ccc3cc[nH]c3c2F)c(F)c(N)c1OC = 47%
• CO/C=N/c1c(F)c(-c2ccc3cc[nH]c3c2F)nc(C(=O)OC)c1Cl = 20%

----------
Reported pest or weed control at 8.75 g/ha values for the following compounds.
System: common poppy (PAPRH)
PROCEDURE SUMMARY: Postemergence greenhouse trial, % visual injury on common poppy
Format: in vivo, Papaver rhoeas
MEASUREMENT CONDITIONS: Papaver rhoeas, post-emergence; PAPRH; 8.75 g/ha, applied alone; read-out: % visual injury, Ob
MEASURED PROPERTY: pest or weed control at 8.75 g/ha

• Nc1c(F)c(-c2ccc3scnc3c2)nc(C(=O)O)c1Cl = 85%
• COc1c(N)nc(-c2ccc3sccc3c2)nc1C(=O)O = 80%
• COC(=O)c1nc(-c2ccc3sccc3c2)c(F)c(N)c1Cl = 90%
• Nc1c(F)c(-c2ccc3cc[nH]c3c2)nc(C(=O)O)c1Cl = 70%
• Nc1c(F)c(-c2ccc3ccoc3c2)nc(C(=O)O)c1Cl = 85%

----------
Tested on: spring barley (HORVS)
PROCEDURE SUMMARY: Postemergence greenhouse trial, % visual injury on spring barley
Type: in vivo, Hordeum vulgare
MEASUREMENT CONDITIONS: HORVS; 70 g/ha, applied alone
# note: exactly 40% is not below, so it is no; use yes for % visual injury, Ob strictly under it

• COC(=O)c1nc(-c2ccc3sccc3c2)c(F)c(N)c1Cl = no
• CCCCCC(C)OC(=O)COc1ccc(Cl)c2cccnc12 (centres unmarked) [CQC-m, cloquintocet-mexyl, reference compound] = yes
• Nc1c(F)c(-c2ccc3scnc3c2)nc(C(=O)O)c1Cl = no
• COc1c(N)nc(-c2ccc3sccc3c2)nc1C(=O)O = yes

----------
Test system: poinsettia (EPHHL)
PROCEDURE SUMMARY: Postemergence greenhouse trial, % visual injury on poinsettia
Format: in vivo, Euphorbia heterophylla
MEASUREMENT CONDITIONS: alone, 35 g/ha
MEASURED PROPERTY: % visual injury, Ob

* COC(=O)c1nc(-c2ccc3ccn(C(=O)C(C)(C)C)c3c2F)c(F)c(N)c1Cl | 100%
* COCC(=O)n1ccc2ccc(-c3nc(C(=O)OC)c(Cl)c(N)c3F)c(F)c21 | 100%
* Nc1c(F)c(-c2ccc3cc[nH]c3c2F)nc(C(=O)OCc2ccccc2)c1Cl | 100%
* CCCCCC(C)OC(=O)COc1ccc(Cl)c2cccnc12 (stereo not shown) [CQC-m, cloquintocet-mexyl, reference compound] | 0%
